- SYSTEM: CYP101D1 (Novosphingobium aromaticivorans, UniProt Q2GB12)
- Sequence (Q2GB12 1-421): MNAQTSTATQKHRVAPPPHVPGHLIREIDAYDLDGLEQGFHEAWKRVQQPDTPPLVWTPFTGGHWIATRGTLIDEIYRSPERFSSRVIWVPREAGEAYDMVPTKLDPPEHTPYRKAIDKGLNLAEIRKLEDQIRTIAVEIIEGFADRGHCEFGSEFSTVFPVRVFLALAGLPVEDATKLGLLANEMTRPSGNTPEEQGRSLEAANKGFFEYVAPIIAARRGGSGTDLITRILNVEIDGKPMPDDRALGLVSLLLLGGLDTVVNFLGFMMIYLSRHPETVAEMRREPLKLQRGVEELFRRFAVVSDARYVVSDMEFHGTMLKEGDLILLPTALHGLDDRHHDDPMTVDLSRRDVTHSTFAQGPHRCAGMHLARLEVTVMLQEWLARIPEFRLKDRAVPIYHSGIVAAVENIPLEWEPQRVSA
MEASUREMENT LABEL: Kd (µM)
Answers are plain numbers, in µM.

Record request: Kd value, item CC1(C)[C@@H]2CC[C@@]1(C)C(=O)C2
14.9
